Tested on: ACHN renal
MEASUREMENT DESCRIPTION: NCI-60 one-dose screen, 48 h (100 = growth as untreated, 0 = no growth, -100 = all killed)
RECORDED CONDITIONS: 10 µM unless noted
About 83,000 compounds went through this panel and 20% of them were active in at least one assay; those are over-represented in the sample as a whole.
OUTCOME MEASURE: growth (%)
# unit: % | format: bare number

// compound Nc1cc(Br)c(-c2nnc(CCC(=O)c3nc4ccccc4[nH]3)o2)c(Br)c1 , assay ACHN renal, growth value: 102

Tested on ACHN renal: O=C1CN2CCC1C/C2=C\c1ccnc2c(Cl)cccc12 (stereo unspecified) . Observed growth: 91.2

growth value, target or system ACHN renal, for CS(=O)(=O)Nc1cccc(C(=O)NCc2ccc(N3CCOCC3)cc2)c1 : 115

The reported growth value, ACHN renal, for COc1ccc2c(c1)c(=O)oc1c(C)c(OCC(C)=O)ccc12 reads 97.2
